Item-by-item account of log10 IC50
# assay.target: human TLR8 (Homo sapiens, UniProt Q9NR97)
# Sequence (Q9NR97 27-1041): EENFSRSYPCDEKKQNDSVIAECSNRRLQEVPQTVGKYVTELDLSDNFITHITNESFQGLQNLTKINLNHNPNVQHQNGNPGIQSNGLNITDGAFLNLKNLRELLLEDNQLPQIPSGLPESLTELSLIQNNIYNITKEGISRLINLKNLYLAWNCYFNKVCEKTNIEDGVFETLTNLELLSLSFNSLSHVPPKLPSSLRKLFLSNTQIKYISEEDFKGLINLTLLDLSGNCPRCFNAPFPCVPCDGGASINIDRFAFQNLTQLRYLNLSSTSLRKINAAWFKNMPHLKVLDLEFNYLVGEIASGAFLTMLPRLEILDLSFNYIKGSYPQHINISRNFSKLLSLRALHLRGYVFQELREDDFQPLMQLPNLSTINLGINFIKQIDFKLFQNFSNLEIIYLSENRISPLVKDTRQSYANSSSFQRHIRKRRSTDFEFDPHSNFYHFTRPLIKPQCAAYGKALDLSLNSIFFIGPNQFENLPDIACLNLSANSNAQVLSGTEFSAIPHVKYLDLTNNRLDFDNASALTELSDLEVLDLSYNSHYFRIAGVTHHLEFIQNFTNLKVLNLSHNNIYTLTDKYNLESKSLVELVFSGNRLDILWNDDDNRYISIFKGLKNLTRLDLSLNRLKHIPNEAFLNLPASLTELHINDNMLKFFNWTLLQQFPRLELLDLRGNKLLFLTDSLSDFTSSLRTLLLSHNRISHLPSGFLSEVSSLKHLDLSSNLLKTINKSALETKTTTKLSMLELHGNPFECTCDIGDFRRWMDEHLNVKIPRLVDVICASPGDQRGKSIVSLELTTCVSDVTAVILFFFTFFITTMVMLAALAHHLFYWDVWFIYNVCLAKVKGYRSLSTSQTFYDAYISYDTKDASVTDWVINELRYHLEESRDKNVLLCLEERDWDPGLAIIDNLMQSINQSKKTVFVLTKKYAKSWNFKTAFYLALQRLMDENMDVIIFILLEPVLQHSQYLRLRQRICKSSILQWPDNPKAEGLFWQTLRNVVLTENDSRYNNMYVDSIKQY
# method.notes: TLR8 inhibition reporter assay (HEK-Blue SEAP)
# experimental.parameters: HEK-Blue cells overexpressing human TLR8, stimulated with R848 15.9 μM, 22 hour incubation
reported.property: log10 IC50 (log10 of the value in nM)

>>> df
                                    molecule  reported_measurement
 0  Cc1cc(-c2[nH]c3ccc(O[C@H]4CCCNC4)cc3c2C(C)C)cn2ncnc12 [Example 9]                  1.03
 1  CCc1c(-c2ccnc(C)c2)[nH]c2ccc(OC3CCN(C(C)C)C3)cc12 (centres unmarked) [Example 190]                  2.07
 2  Cc1cc(-c2[nH]c3ccc(OCc4ccccc4)cc3c2C(C)C)ccn1 [Example 165]                  3.11
 3  Cc1cc(-c2[nH]c3ccc(OCC4CCN(CC(=O)N(C)C)CC4)cc3c2C(C)C)cn(C)c1=O [Example 81]                  0.99
 4  Cc1cc(-c2[nH]c3ccc(OC4CCN(CCO)CC4)cc3c2C(C)C)cc(C)n1 [Example 70]                  0.18
 5  COc1ccc(-c2[nH]c3ccc(OCC(=O)N[C@@H]4CCNC4)cc3c2C(C)C)cc1OC [Example 135]                  1.38
 6  Cc1cc(-c2[nH]c3ccc(OCC4CN(CCS(C)(=O)=O)C4)cc3c2C(C)C)cn2ncnc12 [Example 92]                  0.58
 7  CCc1c(-c2ccnc(C)c2)[nH]c2ccc(OC3CCNCC3)cc12 [Example 163]                  0.95
 8  Cc1cc(-c2[nH]c3ccc(OC4CCNCC4)cc3c2C(C)C)cn(C)c1=O [Example 11]                  0.32
 9  Cc1cc(-c2[nH]c3ccc(OC4CCN(C(C)C)CC4)cc3c2C(C)C)cc(C)n1 [Example 31]                  0.00
10  COc1ccc(-c2[nH]c3ccc(OCC(=O)NC4CC[C@H]5CC[C@@H]4N5C)cc3c2C(C)C)cc1OC (some centres unmarked) [Example 124]                  1.71
11  Cc1cc(-c2[nH]c3ccc(OCc4ccncc4)cc3c2C(C)C)ccn1 [Example 174]                  3.48
12  COc1ccc(-c2[nH]c3ccc(OCC(=O)NC4CN5CCC4CC5)cc3c2C(C)C)cc1OC (centres unmarked) [Example 125]                  1.65
13  Cc1cc(-c2[nH]c3ccc(OCC(=O)NCC(C)(C)O)cc3c2C(C)C)ccn1 [Example 151]                  2.75
14  Cc1cc(-c2[nH]c3ccc(OCC4CCCNC4)cc3c2C(C)C)ccn1 (centres unmarked) [Example 180]                  0.54
15  Cc1cc(-c2[nH]c3ccc(OCC(=O)N4CCCCC4C4CCNCC4)cc3c2C(C)C)ccn1 (centres unmarked) [Example 143]                  2.34
16  Cc1cc(-c2[nH]c3ccc(OC4CCN(CC(C)C)CC4)cc3c2C(C)C)cn(C)c1=O [Example 76]                 -0.10
